Assay procedure: modulators of S6 phosphorylation in cells, primary screen, cell-based, A549, cytoblot, luminescence, serum-stimulated (AID 1158);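 note: serum-stimulated A549 lung adenocarcinoma cells; signal is phosphorylated S6 detected by cytoblot immunostaining with HRP secondary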
Condition details: A549 phospho-S6 cytoblot, 5 h, higher = more signal

Molecule	z-score
COC(=O)C1=CC(CCCO)=CC(C2CC2)N(C)C=C1C(=O)OC (stereo not given)	1.83
CC(C)(C)OC(=O)CC[C@@]1(C(=O)NCc2ccccc2)N=C(c2ccc(OCCCO)cc2)O[C@@H]1c1ccccc1N=[N+]=[N-]	0.787
C=CC[C@]1(C(=O)NCCN2CCOCC2)N=C(c2ccc(OCCCO)cc2)O[C@H]1c1ccccc1CN=[N+]=[N-]	0.202
CC(C)OC(=O)C=C1C[C@@H](c2ccc(C(F)(F)F)cc2)O[C@@H](c2ccc(C(F)(F)F)cc2)O1	0.569
CN(C)CCCNC(=O)[C@@]1(C)c2ccccc2C(=O)N(Cc2ccccc2)[C@H]1c1ccc(CO)cc1	-0.142
COCCOC(=O)N1C(=O)[C@@]2(c3cc(C#Cc4ccc(OC)cc4)ccc31)[C@H](c1ccc(O)cc1)N1[C@H](c3ccccc3)[C@H](c3ccccc3)OC(=O)[C@H]1[C@@H]2C(=O)N1CCCCCCC1	-0.307
CCCNC(=O)[C@@H]1c2ccccc2C(=O)N(C(C)C)[C@H]1c1ccc(CO)cc1	-0.0878
COCCOC(=O)N1C(=O)[C@@]2(c3cc(C#CC4=CCCCC4)ccc31)[C@H](C(N)=O)[C@H]1C(=O)O[C@H](c3ccccc3)[C@H](c3ccccc3)N1[C@@H]2c1ccccc1OCCO	-0.332
COC(=O)[C@@]1(Cc2ccc(F)cc2)[C@H]2c3cc(C(=O)N(C)C)n(Cc4cc(F)cc5c4OCOC5)c3C[C@H]2CN1C(=O)c1ccccc1	1.16
CN1C(=O)C2C=CC(C(O)C#Cc3ccccc3)N(Nc3ccccc3)C2C1=O (stereo not given)	-1.19
COC(=O)[C@@]1(Cc2ccccc2)[C@H]2c3cc(C(=O)N(C)C)n(CCN4CNCC4=O)c3C[C@H]2CN1C(=O)c1ccccc1	-0.646
COc1ccc([Si](C)(C)[C@H]2[C@H](CC(=O)N(CCO)Cc3ccccc3)O[C@@]3(C(=O)N(Cc4cccc(N5CCOC5=O)c4)c4ccccc43)[C@@H]2C)cc1	0.315
CCCCCCc1nc(-c2cc(C)c(OC)c(C)c2)c(C)c2c1[Si](C(C)C)(C(C)C)OC2	1.94
N#Cc1ccc(C(O)C2C=CC3C(=O)N(c4ccccc4)C(=O)C3N2Nc2ccccc2)cc1 (stereo not given)	1.64
Cc1ccc(S[C@]2(C(=O)O)CC(=O)N(Cc3ccccc3Cl)[C@@H]2c2ccc(CO)cc2I)cc1	-0.0366

###

Listing: composite z-score of selected compounds
Assay procedure: COS7 lysate on small-molecule microarray, probe aHis, 635 nm (AID 1123);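 note: z-score combines 667nm fluorescence intensity with signal-to-noise per printed compound spot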
Condition details: COS7 cell lysate, fluorescence, higher = more signal

Compound	composite z-score
O=C1O[C@@H](c2ccccc2)[C@@H](c2ccccc2)N2[C@@H](c3ccc(O)cc3)[C@]3(C(=O)Nc4ccc(C#CC5=CCCCC5)cc43)[C@@H](C(=O)NC[C@H](O)c3ccccc3)[C@H]12	2.1
CC(C)(C)OC(=O)CC[C@]1(C(=O)NCC(O)CO)N=C(c2ccc(OCCCO)cc2)O[C@H]1c1ccccc1 (stereo partly specified)	3.11
C=CCN1Cc2ccccc2[C@H]2OC(c3ccc(OCCCO)cc3)=N[C@@]2(CC=C)C1=O	2.78
O=C1O[C@@H](c2ccccc2)[C@@H](c2ccccc2)N2[C@@H](c3ccc(O)cc3)[C@]3(C(=O)Nc4ccc(C#CC5(O)CCCCCC5)cc43)[C@@H](C(=O)NC[C@H](O)c3ccccc3)[C@H]12	1.05
COc1cc(OC)c(C(O)C2C=CC3C(=O)N(c4ccccc4)C(=O)C3N2Nc2ccccc2)cc1Br (stereo unspecified)	1.33
CCOc1cc(C(O)C2C=CC3C(=O)N(c4ccccc4)C(=O)C3N2Nc2ccc(C#N)cc2)ccc1O (stereo unspecified)	0.825
CC(C)C[C@@H]1NC(=O)[C@@H]2C[C@H](C(=O)NCCCCCN)[C@H](c3ccc(O)cc3)N2C1=O	1.48
CN(C)CCCCNC(=O)[C@@H]1C[C@@H]2C(=O)N[C@@H](Cc3ccccc3)C(=O)N2[C@@H]1c1cccc(OCCO)c1	2.59
COC(=O)[C@@]1(Cc2ccc(F)cc2)[C@H]2c3cc(C(=O)N4CCCC4)n(CCN4CNCC4=O)c3C[C@H]2CN1C(=O)c1ccccc1	3.18
CN(C)C(=O)C1N=C(c2ccc(OCCCO)cc2)N(c2ccccc2)O1 (stereo unspecified)	1.15
[N-]=[N+]=NCc1ccccc1[C@H]1OC(c2ccc(OCCCO)cc2)=N[C@@]1(CCS(=O)(=O)c1ccccc1)C(=O)NCC(O)CO (stereo partly specified)	3.48
COCCOC(=O)N1C(=O)[C@@]2(c3ccccc31)[C@H](C(=O)N1CCN(c3ncccn3)CC1)[C@H]1C(=O)O[C@H](c3ccccc3)[C@H](c3ccccc3)N1[C@@H]2c1ccc(O)cc1	1.15
O=c1n(-c2ccccc2)c(=O)n2n1CC(COc1ccccc1)=C([C@H](O)CCc1ccccc1)[C@@H]2CO	0.277
COCCOC(=O)N1C(=O)[C@@]2(c3cc(C#CC4=CCCCC4)ccc31)[C@H](C(=O)N1CCCCCCC1)[C@H]1C(=O)O[C@H](c3ccccc3)[C@H](c3ccccc3)N1[C@@H]2c1ccc(O)cc1	2.17
C=CC1c2cc(O)c(OC)cc2CCN1Cc1cc2c(cc1Br)OCO2 (stereo unspecified)	1.99
C=CCOC(=O)[C@H]1[C@@H]2C(=O)O[C@@H](c3ccccc3)[C@@H](c3ccccc3)N2[C@@H](c2ccc(OCCOC(=O)[C@H]3C[C@H]4C(=O)N[C@@H](CCCCNC(C)=O)C(=O)N4[C@H]3c3ccc(O)cc3)cc2)[C@]12C(=O)Nc1ccccc12	1.19
COC(=O)C(CC#Cc1ccc2c(c1)[C@]1(C(=O)N2)[C@H](c2ccccc2OCCO)N2[C@H](c3ccccc3)[C@H](c3ccccc3)OC(=O)[C@H]2[C@@H]1C(=O)NC[C@H](O)c1ccccc1)C(=O)OC	1.83
C=CCC(OC(C)=O)[C@@H]1[C@@H](N(Cc2cccc3ccccc23)C(=O)c2cccc3ccccc23)c2cc(OCCCO)ccc2N1C(=O)c1ccc(-c2ccccc2)cc1 (stereo partly specified)	0.888
CCCCO[C@H]1C[C@H]2C(I)=C[C@@H]1C(=O)[C@]21CO1	-0.196
COc1ccc([Si](C)(C)[C@@H]2[C@@H](CC(=O)N3Cc4ccccc4C[C@H]3CO)O[C@]3(C(=O)N(Cc4cccc(N5C(=O)c6cccc7cccc5c67)c4)c4ccccc43)[C@H]2C)cc1	1.26
CCCC[C@@H]1C[C@H]1[C@@H](NC(=O)c1ccccc1)c1ccc(C(F)(F)F)cc1	-0.511
C=CCC(OC(C)=O)[C@@H]1[C@@H](N(Cc2ccc(-c3cccc(C(F)(F)F)c3)o2)C(=O)c2ccc(-c3ccccc3)cc2)c2cc(OCCCO)ccc2N1C(=O)c1ccc2ccccc2n1 (stereo partly specified)	0.266
COC(=O)[C@@]1(Cc2ccccc2)[C@@H]2C(=CC(=O)[C@H]2CC(=O)C(=O)N(C)C)CN1C(=O)c1ccccc1	2.61
COC(=O)[C@@]1(Cc2ccc(OC)cc2)[C@H]2c3cc(C(=O)N4CCCC4)n(Cc4c(-c5ccccc5)noc4C)c3C[C@H]2CN1C(=O)c1ccccc1	3.24
CCOC(=O)C[C@H]1[C@H](OC(=O)c2cc3ccccc3oc2=O)[C@@H](NC(=O)c2ccc(-c3ccccc3)cc2)c2cc(OCCCO)ccc2N1C(=O)c1ccccc1	0.716
CCCC[C@@H](O)C1=C(COc2ccccc2)C[C@H]2C(=O)N(C)C(=O)[C@H]2[C@H]1CO	-0.61

Attribution: PubChem BioAssay
